Data provenance is ChEMBL document CHEMBL4814007.

Catalogue of Activity readings, one per entry.
System tested: Protein cereblon/ALK tyrosine kinase receptor (Homo sapiens, UniProt Q9UM73+Q96SW2)
Sequence (Q96SW2 whole entry partner): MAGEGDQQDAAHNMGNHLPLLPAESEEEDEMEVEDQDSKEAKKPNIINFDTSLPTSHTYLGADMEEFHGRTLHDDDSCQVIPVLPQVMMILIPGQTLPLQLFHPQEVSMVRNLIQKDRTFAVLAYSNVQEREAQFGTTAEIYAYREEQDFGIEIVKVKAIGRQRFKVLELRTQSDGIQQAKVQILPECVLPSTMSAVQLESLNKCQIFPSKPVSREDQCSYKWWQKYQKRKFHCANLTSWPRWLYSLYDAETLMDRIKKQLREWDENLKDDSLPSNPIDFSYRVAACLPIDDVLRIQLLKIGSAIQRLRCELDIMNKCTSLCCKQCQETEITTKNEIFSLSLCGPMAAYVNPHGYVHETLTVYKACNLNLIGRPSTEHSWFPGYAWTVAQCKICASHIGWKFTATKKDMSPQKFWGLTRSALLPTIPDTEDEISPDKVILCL
Sequence (Q9UM73 19-1620 limits assumed): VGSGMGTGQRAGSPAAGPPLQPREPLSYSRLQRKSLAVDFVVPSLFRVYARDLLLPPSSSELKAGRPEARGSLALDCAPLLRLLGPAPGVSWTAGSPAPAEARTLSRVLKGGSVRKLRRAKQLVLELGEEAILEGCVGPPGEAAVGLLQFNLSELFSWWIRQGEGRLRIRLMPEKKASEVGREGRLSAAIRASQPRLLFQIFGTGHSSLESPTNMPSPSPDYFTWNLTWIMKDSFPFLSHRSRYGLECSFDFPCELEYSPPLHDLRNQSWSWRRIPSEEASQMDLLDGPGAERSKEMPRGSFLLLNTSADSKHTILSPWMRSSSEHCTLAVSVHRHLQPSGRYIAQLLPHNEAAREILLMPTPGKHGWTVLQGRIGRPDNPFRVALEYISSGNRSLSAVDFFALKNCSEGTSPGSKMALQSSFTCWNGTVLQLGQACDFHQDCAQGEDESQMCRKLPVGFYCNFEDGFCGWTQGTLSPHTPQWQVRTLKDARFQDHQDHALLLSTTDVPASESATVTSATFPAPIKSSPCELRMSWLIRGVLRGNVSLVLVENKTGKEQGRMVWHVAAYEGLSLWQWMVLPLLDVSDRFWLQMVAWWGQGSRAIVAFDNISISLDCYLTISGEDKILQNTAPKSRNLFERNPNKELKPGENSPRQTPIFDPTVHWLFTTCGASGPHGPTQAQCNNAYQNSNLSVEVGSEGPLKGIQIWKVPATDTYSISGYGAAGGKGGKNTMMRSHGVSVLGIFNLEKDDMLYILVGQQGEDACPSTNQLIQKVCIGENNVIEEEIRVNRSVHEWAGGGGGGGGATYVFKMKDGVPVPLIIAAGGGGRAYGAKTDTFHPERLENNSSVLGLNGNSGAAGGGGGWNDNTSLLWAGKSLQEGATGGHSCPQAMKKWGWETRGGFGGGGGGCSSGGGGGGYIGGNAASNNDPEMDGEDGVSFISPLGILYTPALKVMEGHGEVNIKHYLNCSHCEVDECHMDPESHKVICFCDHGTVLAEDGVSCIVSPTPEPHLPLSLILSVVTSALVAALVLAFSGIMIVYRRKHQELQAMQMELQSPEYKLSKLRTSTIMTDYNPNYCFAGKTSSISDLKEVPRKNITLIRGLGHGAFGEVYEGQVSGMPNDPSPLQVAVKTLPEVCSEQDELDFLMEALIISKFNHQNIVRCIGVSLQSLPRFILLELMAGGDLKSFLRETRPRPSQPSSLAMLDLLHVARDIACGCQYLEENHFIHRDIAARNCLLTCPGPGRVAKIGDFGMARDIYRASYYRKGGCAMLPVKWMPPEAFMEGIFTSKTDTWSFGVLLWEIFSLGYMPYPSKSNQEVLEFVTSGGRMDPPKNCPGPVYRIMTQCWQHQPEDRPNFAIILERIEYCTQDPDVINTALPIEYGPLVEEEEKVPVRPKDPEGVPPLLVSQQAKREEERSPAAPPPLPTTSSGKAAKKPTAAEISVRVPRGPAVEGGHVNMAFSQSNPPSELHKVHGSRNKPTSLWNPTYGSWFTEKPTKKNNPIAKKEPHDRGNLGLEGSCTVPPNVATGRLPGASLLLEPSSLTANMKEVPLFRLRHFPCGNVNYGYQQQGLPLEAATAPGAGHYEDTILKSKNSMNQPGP
Assay text: Protac activity at CRBN/ALK in human SR cells assessed as protein abundance at 500 nM by Western blot analysis (reference value: 1)
Type: cell-based
Measurement kind: Activity

molecule="CCc1cc2c(cc1N1CCC(N3CCN(C(=O)CCOCCOCCOCCOCCNc4cccc5c4C(=O)N(C4CCC(=O)NC4=O)C5=O)CC3)CC1)C(C)(C)c1[nH]c3cc(C#N)ccc3c1C2=O (stereo unspecified)" measurement_kind=Activity measured_number=0.53
molecule="CCc1cc2c(cc1N1CCN(C(=O)CNc3cccc4c3C(=O)N(C3CCC(=O)NC3=O)C4=O)CC1)C(C)(C)c1[nH]c3cc(C#N)ccc3c1C2=O (stereo unspecified)" measurement_kind=Activity measured_number=0.43
molecule="CCc1cc2c(cc1N1CCC(N3CCN(C(=O)CCCNc4cccc5c4C(=O)N(C4CCC(=O)NC4=O)C5=O)CC3)CC1)C(C)(C)c1[nH]c3cc(C#N)ccc3c1C2=O (stereo unspecified)" measurement_kind=Activity measured_number=0.47
molecule="CCc1cc2c(cc1N1CCC(N3CCN(CCCCCC#Cc4cccc5c4CN(C4CCC(=O)NC4=O)C5=O)CC3)CC1)C(C)(C)c1[nH]c3cc(C#N)ccc3c1C2=O (stereo unspecified)" measurement_kind=Activity measured_number=0.69
molecule="CCc1cc2c(cc1N1CCC(N3CCN(CCCC#Cc4cccc5c4CN(C4CCC(=O)NC4=O)C5=O)CC3)CC1)C(C)(C)c1[nH]c3cc(C#N)ccc3c1C2=O (stereo unspecified)" measurement_kind=Activity measured_number=0.37
molecule="CCc1cc2c(cc1N1CCC(N3CCN(C(=O)CNc4cccc5c4CN(C4CCC(=O)NC4=O)C5=O)CC3)CC1)C(C)(C)c1[nH]c3cc(C#N)ccc3c1C2=O (stereo unspecified)" measurement_kind=Activity measured_number=0.27

---

System: SR
Assay text: Antiproliferative activity against ALK positive human SR cells
Type: functional, cell-based
Class (required): determined from IC50; valid ranges are low: < 3 nM; medium: ≥ 3 nM and < 6 nM; high: ≥ 6 nM

compound="CCc1cc2c(cc1N1CCC(N3CCN(C(=O)CNc4cccc5c4CN(C4CCC(=O)NC4=O)C5=O)CC3)CC1)C(C)(C)c1[nH]c3cc(C#N)ccc3c1C2=O (centres undefined)" class=low
compound="CCc1cc2c(cc1N1CCC(N3CCN(C(=O)CCCCCNc4cccc5c4CN(C4CCC(=O)NC4=O)C5=O)CC3)CC1)C(C)(C)c1[nH]c3cc(C#N)ccc3c1C2=O (centres undefined)" class=medium
compound="Cc1cc(Nc2ncc(Cl)c(Nc3ccccc3S(=O)(=O)C(C)C)n2)c(OC(C)C)cc1C1CCN(C(=O)NCCOCCOCCOCCOCCOCCNC(=O)CNc2cccc3c2C(=O)N(C2CCC(=O)NC2=O)C3=O)CC1 (centres undefined)" class=high
compound="CCc1cc2c(cc1N1CCC(N3CCN(CCCCCC#Cc4cccc5c4CN(C4CCC(=O)NC4=O)C5=O)CC3)CC1)C(C)(C)c1[nH]c3cc(C#N)ccc3c1C2=O (centres undefined)" class=low
compound="CCc1cc2c(cc1N1CCC(N3CCN(C(=O)CNc4cccc5c4C(=O)N(C4CCC(=O)NC4=O)C5=O)CC3)CC1)C(C)(C)c1[nH]c3cc(C#N)ccc3c1C2=O (centres undefined)" class=medium
compound="CCc1cc2c(cc1N1CCC(NC(=O)CNc3cccc4c3C(=O)N(C3CCC(=O)NC3=O)C4=O)CC1)C(C)(C)c1[nH]c3cc(C#N)ccc3c1C2=O (centres undefined)" class=high
compound="CCc1cc2c(cc1N1CCN(C(=O)CCCCCNc3cccc4c3C(=O)N(C3CCC(=O)NC3=O)C4=O)CC1)C(C)(C)c1[nH]c3cc(C#N)ccc3c1C2=O (centres undefined)" class=high
compound="CCc1cc2c(cc1N1CCC(N3CCN(CCCCCCCC#Cc4cccc5c4CN(C4CCC(=O)NC4=O)C5=O)CC3)CC1)C(C)(C)c1[nH]c3cc(C#N)ccc3c1C2=O (centres undefined)" class=medium
compound="CCc1cc2c(cc1N1CCC(N3CCN(C(=O)CCCNc4cccc5c4CN(C4CCC(=O)NC4=O)C5=O)CC3)CC1)C(C)(C)c1[nH]c3cc(C#N)ccc3c1C2=O (centres undefined)" class=medium
compound="CCc1cc2c(cc1N1CCC(N3CCN(C(=O)CCCCCCCCC(=O)NC(C(=O)N4C[C@H](O)C[C@H]4C(=O)NCc4ccc(-c5scnc5C)cc4)C(C)(C)C)CC3)CC1)C(C)(C)c1[nH]c3cc(C#N)ccc3c1C2=O (single isomer, unassigned)" class=high
compound=CCc1cc2c(cc1N1CCC(N3CCNCC3)CC1)C(C)(C)c1[nH]c3cc(C#N)ccc3c1C2=O class=medium
compound="CCc1cc2c(cc1N1CCC(N3CCN(CCCCC#Cc4cccc5c4CN(C4CCC(=O)NC4=O)C5=O)CC3)CC1)C(C)(C)c1[nH]c3cc(C#N)ccc3c1C2=O (centres undefined)" class=low
compound="CCc1cc2c(cc1N1CCC(N3CCN(C(=O)CCCCCCNc4cccc5c4CN(C4CCC(=O)NC4=O)C5=O)CC3)CC1)C(C)(C)c1[nH]c3cc(C#N)ccc3c1C2=O (centres undefined)" class=high
compound=CCc1cc2c(cc1N1CCC(N)CC1)C(C)(C)c1[nH]c3cc(C#N)ccc3c1C2=O class=low
compound="CCc1cc2c(cc1N1CCC(N3CCN(C(=O)CCCCCNc4cccc5c4C(=O)N(C4CCC(=O)NC4=O)C5=O)CC3)CC1)C(C)(C)c1[nH]c3cc(C#N)ccc3c1C2=O (centres undefined)" class=medium
compound="CCc1cc2c(cc1N1CCC(N3CCN(CCCCCCC#Cc4cccc5c4CN(C4CCC(=O)NC4=O)C5=O)CC3)CC1)C(C)(C)c1[nH]c3cc(C#N)ccc3c1C2=O (centres undefined)" class=low
compound=CCc1cc2c(cc1N1CCNCC1)C(C)(C)c1[nH]c3cc(C#N)ccc3c1C2=O class=low
compound="CCc1cc2c(cc1N1CCC(NC(=O)CCCCCNc3cccc4c3C(=O)N(C3CCC(=O)NC3=O)C4=O)CC1)C(C)(C)c1[nH]c3cc(C#N)ccc3c1C2=O (centres undefined)" class=medium
compound="Cc1cc(Nc2ncc(Cl)c(Nc3ccccc3S(=O)(=O)C(C)C)n2)c(OC(C)C)cc1C1CCN(C(=O)NCCNC(=O)CNc2cccc3c2C(=O)N(C2CCC(=O)NC2=O)C3=O)CC1 (centres undefined)" class=high
compound="CCc1cc2c(cc1N1CCC(NC(=O)CCOCCOCCNc3cccc4c3C(=O)N(C3CCC(=O)NC3=O)C4=O)CC1)C(C)(C)c1[nH]c3cc(C#N)ccc3c1C2=O (centres undefined)" class=high
compound=Cc1cc(Nc2ncc(Cl)c(Nc3ccccc3S(=O)(=O)C(C)C)n2)c(OC(C)C)cc1C1CCNCC1 class=low
compound="CCc1cc2c(cc1N1CCC(N3CCN(C(=O)CCOCCOCCOCCOCCNc4cccc5c4C(=O)N(C4CCC(=O)NC4=O)C5=O)CC3)CC1)C(C)(C)c1[nH]c3cc(C#N)ccc3c1C2=O (centres undefined)" class=medium
compound=COc1cc(N2CCC(NC(=O)CCCCCCCCCC(=O)N[C@@H](C(=O)N3C[C@H](O)C[C@H]3C(=O)NCc3ccc(-c4scnc4C)cc3)C(C)(C)C)CC2)ccc1Nc1ncc(Cl)c(Nc2ccccc2P(C)(C)=O)n1 class=low

---

Assay text: Oral bioavailability in rat at 10 mg/kg
Type: ADME, organism-based
Setup conditions: in vivo
Measurement kind: bioavailability (%)

molecule="CCc1cc2c(cc1N1CCC(N3CCN(CCCC#Cc4cccc5c4CN(C4CCC(=O)NC4=O)C5=O)CC3)CC1)C(C)(C)c1[nH]c3cc(C#N)ccc3c1C2=O (stereo unspecified)" measurement_kind=bioavailability units_symbol=% measured_number=16

---

Assay text: Cmax in rat at 2 mg/kg, ip
Assay type: ADME, organism-based
Parameters: route intraperitoneal, dose 2 mg/kg
Setup conditions: in vivo
Measurement kind: Cmax

compound="CCc1cc2c(cc1N1CCC(N3CCN(CCCC#Cc4cccc5c4CN(C4CCC(=O)NC4=O)C5=O)CC3)CC1)C(C)(C)c1[nH]c3cc(C#N)ccc3c1C2=O (stereo unspecified)" result="83.5 ng/mL"

---

System tested: Protein cereblon/ALK tyrosine kinase receptor (Homo sapiens, UniProt Q9UM73+Q96SW2)
Assay text: Protac activity at CRBN/ALK in human SR cells assessed as protein abundance at 5 nM by Western blot analysis (reference value: 1)
Format: cell-based
Measurement kind: Activity

compound="CCc1cc2c(cc1N1CCC(N3CCN(CCCC#Cc4cccc5c4CN(C4CCC(=O)NC4=O)C5=O)CC3)CC1)C(C)(C)c1[nH]c3cc(C#N)ccc3c1C2=O (stereo unspecified)" measured_number=0.56
compound="CCc1cc2c(cc1N1CCC(N3CCN(C(=O)CCCNc4cccc5c4C(=O)N(C4CCC(=O)NC4=O)C5=O)CC3)CC1)C(C)(C)c1[nH]c3cc(C#N)ccc3c1C2=O (stereo unspecified)" measured_number=0.66
compound="CCc1cc2c(cc1N1CCC(N3CCN(CCCCCC#Cc4cccc5c4CN(C4CCC(=O)NC4=O)C5=O)CC3)CC1)C(C)(C)c1[nH]c3cc(C#N)ccc3c1C2=O (stereo unspecified)" measured_number=0.76
compound="CCc1cc2c(cc1N1CCC(N3CCN(C(=O)CNc4cccc5c4CN(C4CCC(=O)NC4=O)C5=O)CC3)CC1)C(C)(C)c1[nH]c3cc(C#N)ccc3c1C2=O (stereo unspecified)" measured_number=0.48
compound="CCc1cc2c(cc1N1CCN(C(=O)CNc3cccc4c3C(=O)N(C3CCC(=O)NC3=O)C4=O)CC1)C(C)(C)c1[nH]c3cc(C#N)ccc3c1C2=O (stereo unspecified)" measured_number=0.89
compound="CCc1cc2c(cc1N1CCC(N3CCN(C(=O)CCOCCOCCOCCOCCNc4cccc5c4C(=O)N(C4CCC(=O)NC4=O)C5=O)CC3)CC1)C(C)(C)c1[nH]c3cc(C#N)ccc3c1C2=O (stereo unspecified)" measured_number=0.96
